target under test: neutrophil elastase (HNE) (Homo sapiens, UniProt P08246 P08246:30-267)
Sequence (P08246 30-267, one chain of several): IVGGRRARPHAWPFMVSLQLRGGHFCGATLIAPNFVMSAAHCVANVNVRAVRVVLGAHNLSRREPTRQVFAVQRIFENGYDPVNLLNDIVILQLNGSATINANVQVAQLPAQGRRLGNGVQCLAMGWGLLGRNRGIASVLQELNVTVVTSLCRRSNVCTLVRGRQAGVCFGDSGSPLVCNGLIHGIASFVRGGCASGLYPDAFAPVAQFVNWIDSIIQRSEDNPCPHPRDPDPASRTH
assay info: inhibition; blended ligand (end not specified for Ki); chromogenic substrate, 10 nM elastase, 2 mM MgCl2, 150 mM NaCl, 25 C; >50% inhibition at 70 nM for 3' conjugate
Description: The assay for elastase inhibition is based on the use of a chromogenic tetrapeptide substrate. […] The rate of p-nitroanilide generation in the absence of inhibitor was used as the control.
pKi: −log10 of the molar value.

| binder | pKi |
| --- | --- |
| DNA-17 3'-end peptide conjugate (ssDNA, 3' four 18-atom ethylene glycol spacers and thiol coupled to N-methoxysuccinyl-Ala-Ala-Pro-Val-chloromethyl ketone) DNA: TAGCGATACTGCGTGGGTTGGGGCGGGTAGGGCCAGCAGTCTCGTGCGGTACTTGAGCA | 7.52 |

All figures here come from patent US5683867.
